- assay: Distribution coefficient LogD7.4, n-octanol/PBS, shake-flask method
- Assay type: physicochemical
- appliedConditions: pH 7.4, n-octanol–PBS, n = 3
resultType: logD

Problem: logD for COc1ccc(N2CCOCC2)c2sc(NC(=O)c3ccc([18F])nc3)nc12 [[^18F]TOZ1] ?
Solution: 1.74

###

- testTarget: mA2AR (Mus musculus)
- Sequence (Q60613 whole entry): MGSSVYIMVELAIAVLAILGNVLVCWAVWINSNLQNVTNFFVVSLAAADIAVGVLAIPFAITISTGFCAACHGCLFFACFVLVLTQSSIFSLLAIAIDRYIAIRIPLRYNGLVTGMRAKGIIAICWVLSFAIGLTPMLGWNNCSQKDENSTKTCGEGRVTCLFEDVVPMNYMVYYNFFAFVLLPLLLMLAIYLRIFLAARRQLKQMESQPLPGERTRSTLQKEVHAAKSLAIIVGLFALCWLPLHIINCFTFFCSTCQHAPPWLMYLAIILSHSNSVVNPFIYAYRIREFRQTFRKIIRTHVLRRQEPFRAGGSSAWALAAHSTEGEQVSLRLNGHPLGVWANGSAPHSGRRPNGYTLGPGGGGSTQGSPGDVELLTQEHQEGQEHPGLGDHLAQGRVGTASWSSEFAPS
resultType: pKi
Give bare numbers, as −log10 of the molar value.

Problem: pKi for COc1ccc(N2CCOCC2)c2sc(NC(=O)c3ccc([18F])nc3)nc12 [[^18F]TOZ1] ?
Solution: 8.00

###

Target protein (sequence): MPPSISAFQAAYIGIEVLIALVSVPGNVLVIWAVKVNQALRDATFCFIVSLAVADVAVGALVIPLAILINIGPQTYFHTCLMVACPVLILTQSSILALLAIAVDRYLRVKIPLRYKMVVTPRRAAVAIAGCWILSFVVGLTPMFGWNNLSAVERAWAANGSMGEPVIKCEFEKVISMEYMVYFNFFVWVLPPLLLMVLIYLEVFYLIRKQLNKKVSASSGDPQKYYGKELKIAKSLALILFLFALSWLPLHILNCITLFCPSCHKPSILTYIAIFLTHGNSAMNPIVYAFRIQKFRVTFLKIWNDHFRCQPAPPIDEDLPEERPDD
resultType: pKi
Numbers only, as −log10 of the molar value.

COc1ccc(N2CCOCC2)c2sc(NC(=O)c3ccc(F)cc3)nc12 = 6.47
COc1ccc(N2CCOCC2)c2sc(NC(=O)c3ccc(F)nc3)nc12 = 6.21
COc1ccc(N2CCOCC2)c2sc(NC(=O)N3CCC(C)(O)CC3)nc12 = 6.05

Now for a further molecule.
Problem: pKi for COc1ccc(N2CCOCC2)c2sc(NC(=O)c3ccnc(F)c3)nc12 ?
Solution: 6.14
